- assay-overview: compound effects on hepatocellular carcinoma cell viability – HepG2, calcein-AM fluorescence, 48 h, basal, profiling panel (AID 1164); note: test concentration not given here
- test-settings: higher = more signal
Give met when the value for z-score is at least -0.6. Give not met when it is less.

// below: answered molecules
1. O=C1NC(=O)C2C1C=CC(C(O)c1ccc3c(c1)OCO3)N2Nc1ccc(Cl)cc1Cl (configuration not stated) = not met
2. COC(=O)[C@@]1(Cc2ccc(F)cc2)[C@H]2c3cc(C(=O)N4CCCC4)n(Cc4ccccc4)c3C[C@H]2CN1C(=O)c1ccccc1 = met
3. C=CCOC(=O)[C@H]1[C@@H]2C(=O)O[C@@H](c3ccccc3)[C@@H](c3ccccc3)N2[C@@H](c2ccc(OCCOC(=O)[C@H]3C[C@H]4C(=O)N[C@@H](CCCCN(C)C)C(=O)N4[C@H]3c3ccc(O)cc3)cc2)[C@]12C(=O)Nc1ccccc12 = met
4. O=C(C=C(CC(O)c1cccc(Cl)c1)OCCF)OCCF (configuration not stated) = met

### Prompt Could you please find out whether `COc1ccc(C#Cc2ccc3c(c2)[C@]2(C(=O)N3)[C@H](C(N)=O)[C@H]3C(=O)O[C@H](c4ccccc4)[C@H](c4ccccc4)N3[C@@H]2c2ccc(O)cc2)cc1` has z-score that meets -0.6 or exceeds it?
### Response not met

### Prompt Could you please find out whether `C=C(/C(=C/C[C@@H](OC(=O)c1ccncc1)c1ccccc1OCCO)c1cnc2ccccc2c1)C(C)C` has z-score that meets -0.6 or exceeds it?
### Response not met

### Prompt Could you please find out whether O=C1NC(=O)C2C1C=CC(C(O)CCc1ccccc1)N2Nc1ccccn1 (configuration not stated) has z-score that meets -0.6 or exceeds it?
### Response met

The reported numbers originate from PubChem BioAssay.
